Would you kindly list IC50 for each of these compounds?
- systemTested: NRAS WT (Homo sapiens, UniProt P01111+P62937)
- Sequence (P01111 whole entry): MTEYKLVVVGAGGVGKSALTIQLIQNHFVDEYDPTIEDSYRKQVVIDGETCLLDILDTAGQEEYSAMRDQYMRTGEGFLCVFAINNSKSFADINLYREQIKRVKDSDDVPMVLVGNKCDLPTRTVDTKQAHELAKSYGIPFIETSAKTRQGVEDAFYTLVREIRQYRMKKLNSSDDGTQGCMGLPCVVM
- Sequence (P62937 whole entry): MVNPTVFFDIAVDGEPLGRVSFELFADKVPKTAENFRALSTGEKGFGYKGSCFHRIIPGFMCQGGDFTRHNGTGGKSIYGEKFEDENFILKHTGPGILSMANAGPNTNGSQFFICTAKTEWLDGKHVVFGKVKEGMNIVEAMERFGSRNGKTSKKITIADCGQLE
- experimentSummary: Disruption of BRAF RBD interaction with Ras (FRET / MOA assay, with Cyclophilin A)
- Type: biochemical
- conditionSummary: NRAS WT; read-out: NRAS WT FRET data IC50

## Task For the compound CCn1c(-c2cccnc2[C@H](C)OC)c2c3cc(ccc31)-c1csc(n1)C[C@H](NC(=O)[C@H](C(C)C)N(C)C(=O)N1CCCOCC1)C(=O)N1CCC[C@H](N1)C(=O)OCC(C)(C)C2 (atropisomer, axis not shown) [Example A335] , give its measured IC50 value.
## Result 10 to 100 nM

## Task # return recorded IC50 for entry CCn1c(-c2cccnc2[C@H](C)OC)c2c3cc(ccc31)-c1csc(n1)C[C@H](NC(=O)[C@H](C(C)C)N(C)C(=O)N1CC(C)(OC)C1)C(=O)N1CCC[C@H](N1)C(=O)OCC(C)(C)C2 [Example A299]
## Result 100 to 1000 nM

## Task Indicate its recorded IC50; the compound in question is CCn1c(-c2cccnc2[C@H](C)OC)c2c3cc(ccc31)-c1cc(O)cc(c1)C[C@H](NC(=O)C1[C@H]3COC[C@@H]13)C(=O)N1CCC[C@H](N1)C(=O)OCC(C)(C)C2 (some centres unmarked) [Example A253]
## Result 100 to 1000 nM

## Task Entry CCn1c(-c2cccnc2[C@H](C)OC)c2c3cc(ccc31)-c1csc(n1)C[C@H](NC(=O)[C@H](C(C)C)N(C)C(=O)N(C)C1CCC1)C(=O)N1CCC[C@H](N1)C(=O)OCC(C)(C)C2 (atropisomer, axis not shown) [Example A349] needs its IC50 filled in; supply it.
## Result 10 to 100 nM

## Task Please report the measured IC50 for CCn1c(-c2cccnc2[C@H](C)OC)c2c3cc(ccc31)-c1cc(O)cc(c1)C[C@H](NC(=O)[C@H](C(C)C)N(C)C(=O)[C@H]1[C@@H]3CNC[C@@H]31)C(=O)N1CCC[C@H](N1)C(=O)OCC(C)(C)C2 [Example A163]
## Result 100 to 1000 nM

## Task Quick one: give measured IC50 for CCn1c(-c2cccnc2[C@H](C)OC)c2c3cc(ccc31)-c1csc(n1)C[C@H](NC(=O)[C@H](C(C)C)N(C)C(=O)N1CCC[C@@H](CN(C)C)C1)C(=O)N1CCC[C@H](N1)C(=O)OCC(C)(C)C2 [Example A574]
## Result 10 to 100 nM

## Task Provide one value: measured IC50 of CCn1c(-c2cccnc2[C@H](C)OC)c2c3cc(ccc31)-c1csc(n1)C[C@H](NC(=O)[C@H](C(C)C)N(C)C(=O)N1CC(CN(C)C)(OC)C1)C(=O)N1CCC[C@H](N1)C(=O)OCC(C)(C)C2 (atropisomer, axis not shown) [Example A575]
## Result 1000 to 10000 nM

## Task Please report IC50 for the following compound: CCn1c(-c2cccnc2[C@H](C)OC)c2c3cc(ccc31)-c1csc(n1)C[C@H](NC(=O)[C@H](C(C)C)N(C)C(=O)[C@@H]1CCN(C)[C@@H]1c1ccccc1)C(=O)N1CCC[C@H](N1)C(=O)OCC(C)(C)C2 [Example A464]
## Result 1000 to 10000 nM

## Task Supply reported IC50 belonging to this compound: CCn1c(-c2cccnc2[C@H](C)OC)c2c3cc(ccc31)-c1csc(n1)C[C@H](NC(=O)[C@H](C(C)C)N(C)C(=O)N1CC(N(C)C)C1)C(=O)N1CCC[C@H](N1)C(=O)OCC(C)(C)C2 (racemic) [Example A170]
## Result 100 to 1000 nM

## Task // fetch IC50 given entry CCn1c(-c2cccnc2[C@H](C)OC)c2c3cc(ccc31)-c1csc(n1)C[C@H](NC(=O)[C@H](C(C)C)N(C)C(=O)N1CC3(CN(C)CCO3)C1)C(=O)N1CCC[C@H](N1)C(=O)OCC(C)(C)C2 [Example A499]
## Result 1000 to 10000 nM

## Task Name the recorded IC50 of the compound listed here: CCn1c(-c2cccnc2[C@H](C)OC)c2c3cc(ccc31)-c1csc(n1)C[C@H](NC(=O)C1(F)COC1)C(=O)N1CCC[C@H](N1)C(=O)OCC(C)(C)C2 [Example A320]
## Result 100 to 1000 nM

## Task Input CCn1c(-c2cccnc2[C@H](C)OC)c2c3cc(ccc31)-c1cc(O)cc(c1)C[C@H](NC(=O)[C@H](C(C)C)N(C)C(=O)[C@H]1CCN(C(=O)OC)C1)C(=O)N1CCC[C@H](N1)C(=O)OCC(C)(C)C2 (atropisomer, axis not shown) [Example A3] , output reported IC50.
## Result 10 to 100 nM

## Task Specify measured IC50 for CCn1c(-c2cc(C3CCN(C)CC3)cnc2[C@H](C)OC)c2c3cc(ccc31)-c1csc(n1)C[C@H](NC(=O)[C@H](C(C)C)N(C)C(=O)N(C)C)C(=O)N1CCC[C@H](N1)C(=O)OCC(C)(C)C2 (atropisomer, axis not shown) [Example A484] .
## Result 10 to 100 nM

## Task Supply measured IC50 of CCn1c(-c2cccnc2[C@H](C)OC)c2c3cc(ccc31)-c1cc(O)cc(c1)C[C@H](NC(=O)[C@H](C(C)C)N(C)C(=O)OC1CC1)C(=O)N1CCC[C@H](N1)C(=O)OCC(C)(C)C2 [Example A174] in your reply.
## Result 100 to 1000 nM

## Task Read the entry CCn1c(-c2cccnc2[C@H](C)OC)c2c3cc(ccc31)-c1csc(n1)C[C@H](NC(=O)[C@H](C(C)C)N(C)C(=O)N1CCC3(CC1)CN(C)CCO3)C(=O)N1CCC[C@H](N1)C(=O)OCC(C)(C)C2 [Example A433] and write its reported IC50.
## Result 100 to 1000 nM

## Task Supply IC50 value. Item: CCn1c(-c2cccnc2[C@H](C)OC)c2c3cc(ccc31)-c1csc(n1)C[C@H](NC(=O)[C@H](C(C)C)N(C)C(=O)N1CC(C#N)C1)C(=O)N1CCC[C@H](N1)C(=O)OCC(C)(C)C2 (atropisomer, axis not shown) [Example A382]
## Result 100 to 1000 nM

## Task Recall and state the measured IC50 for CCn1c(-c2cccnc2[C@H](C)OC)c2c3cc(ccc31)-c1csc(n1)C[C@H](NC(=O)[C@H](C(C)C)N(C)C(=O)N1CCC13CCN(C)CC3)C(=O)N1CCC[C@H](N1)C(=O)OCC(C)(C)C2 [Example A273] .
## Result 10 to 100 nM
